These data points were gathered from ChEMBL document CHEMBL5154925.

test.system: Phosphatidylinositol 4,5-bisphosphate 3-kinase catalytic subunit gamma isoform (Mus musculus, UniProt Q9JHG7)
Sequence (Q9JHG7 whole entry, canonical isoform): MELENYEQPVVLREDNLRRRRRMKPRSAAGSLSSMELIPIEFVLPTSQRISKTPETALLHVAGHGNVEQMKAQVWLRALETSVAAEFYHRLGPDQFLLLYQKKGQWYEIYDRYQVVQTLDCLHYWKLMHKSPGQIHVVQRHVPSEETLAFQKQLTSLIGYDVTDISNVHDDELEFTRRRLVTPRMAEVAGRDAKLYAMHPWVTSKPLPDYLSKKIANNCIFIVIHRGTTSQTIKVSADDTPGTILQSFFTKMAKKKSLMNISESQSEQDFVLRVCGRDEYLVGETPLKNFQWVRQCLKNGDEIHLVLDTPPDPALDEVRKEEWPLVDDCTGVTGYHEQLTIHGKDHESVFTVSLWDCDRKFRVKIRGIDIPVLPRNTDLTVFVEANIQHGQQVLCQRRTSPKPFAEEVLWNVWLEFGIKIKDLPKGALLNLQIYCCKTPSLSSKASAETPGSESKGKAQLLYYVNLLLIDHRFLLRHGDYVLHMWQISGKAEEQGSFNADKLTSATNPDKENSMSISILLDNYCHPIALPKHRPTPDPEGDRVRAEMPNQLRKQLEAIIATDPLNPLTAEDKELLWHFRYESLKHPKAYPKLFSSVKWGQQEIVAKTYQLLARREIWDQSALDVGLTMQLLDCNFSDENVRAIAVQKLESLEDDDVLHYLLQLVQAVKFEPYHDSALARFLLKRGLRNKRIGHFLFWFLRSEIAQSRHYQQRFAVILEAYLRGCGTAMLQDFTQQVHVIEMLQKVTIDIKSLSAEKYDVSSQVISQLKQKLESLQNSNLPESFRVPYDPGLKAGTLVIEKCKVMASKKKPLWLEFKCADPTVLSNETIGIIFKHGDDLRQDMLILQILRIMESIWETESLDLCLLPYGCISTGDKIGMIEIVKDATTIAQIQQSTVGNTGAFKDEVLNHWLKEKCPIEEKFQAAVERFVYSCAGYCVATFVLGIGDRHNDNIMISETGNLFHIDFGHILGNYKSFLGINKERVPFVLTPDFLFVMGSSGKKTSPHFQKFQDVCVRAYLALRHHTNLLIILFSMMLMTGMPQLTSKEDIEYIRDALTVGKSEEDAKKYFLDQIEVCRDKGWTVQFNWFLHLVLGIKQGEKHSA
assay.overview: Inhibition of PI3Kgamma in C5a stimulated mouse RAW264.7 cells incubated for 10 mins by AlphaLisa assay
pIC50: −log10 of the molar value.
pIC50 listing for selected molecules.
endpoint.name: pIC50

>>> numeric_result("CCC(=O)N1CC[C@H](Nc2ncnc3c2CN(c2cnc(OC)c(C(F)(F)F)c2)CC3)C1")
5.39
>>> numeric_result("CCC(=O)N1CC[C@H](Nc2ncnc3sc(-c4cnc(OC)c(OC)c4)cc23)C1")
5.09
>>> numeric_result("COc1cc(-c2cc3c(N[C@H]4CCN(C(=O)C5CCC5)C4)ncnc3s2)cnc1OC")
5.32
>>> numeric_result("COc1cc(-c2cc3c(O[C@H]4CCN(C(=O)C5CCC5)C4)ncnc3s2)cnc1OC")
5.22

###

assay.overview: AUC (0 to t) in ICR mouse at 30 mg/kg, po measured upto 24 hrs by LC-MS/MS analysis
Format: ADME, organism-based
Set-up: time < 24 hrs, dose 30 mg/kg, route po
experimental.context: in vivo
endpoint.name: AUC(0-t) at 24 h (ng·h/mL)

>>> numeric_result("CCC(=O)N1CC[C@H](Nc2ncnc3sc(-c4cnc(OC)c(OC)c4)cc23)C1")
1030

###

pIC50 listing for selected molecules.
test.system: Phosphatidylinositol 4,5-bisphosphate 3-kinase catalytic subunit beta isoform (Homo sapiens)
Sequence (P42338 whole entry, canonical isoform): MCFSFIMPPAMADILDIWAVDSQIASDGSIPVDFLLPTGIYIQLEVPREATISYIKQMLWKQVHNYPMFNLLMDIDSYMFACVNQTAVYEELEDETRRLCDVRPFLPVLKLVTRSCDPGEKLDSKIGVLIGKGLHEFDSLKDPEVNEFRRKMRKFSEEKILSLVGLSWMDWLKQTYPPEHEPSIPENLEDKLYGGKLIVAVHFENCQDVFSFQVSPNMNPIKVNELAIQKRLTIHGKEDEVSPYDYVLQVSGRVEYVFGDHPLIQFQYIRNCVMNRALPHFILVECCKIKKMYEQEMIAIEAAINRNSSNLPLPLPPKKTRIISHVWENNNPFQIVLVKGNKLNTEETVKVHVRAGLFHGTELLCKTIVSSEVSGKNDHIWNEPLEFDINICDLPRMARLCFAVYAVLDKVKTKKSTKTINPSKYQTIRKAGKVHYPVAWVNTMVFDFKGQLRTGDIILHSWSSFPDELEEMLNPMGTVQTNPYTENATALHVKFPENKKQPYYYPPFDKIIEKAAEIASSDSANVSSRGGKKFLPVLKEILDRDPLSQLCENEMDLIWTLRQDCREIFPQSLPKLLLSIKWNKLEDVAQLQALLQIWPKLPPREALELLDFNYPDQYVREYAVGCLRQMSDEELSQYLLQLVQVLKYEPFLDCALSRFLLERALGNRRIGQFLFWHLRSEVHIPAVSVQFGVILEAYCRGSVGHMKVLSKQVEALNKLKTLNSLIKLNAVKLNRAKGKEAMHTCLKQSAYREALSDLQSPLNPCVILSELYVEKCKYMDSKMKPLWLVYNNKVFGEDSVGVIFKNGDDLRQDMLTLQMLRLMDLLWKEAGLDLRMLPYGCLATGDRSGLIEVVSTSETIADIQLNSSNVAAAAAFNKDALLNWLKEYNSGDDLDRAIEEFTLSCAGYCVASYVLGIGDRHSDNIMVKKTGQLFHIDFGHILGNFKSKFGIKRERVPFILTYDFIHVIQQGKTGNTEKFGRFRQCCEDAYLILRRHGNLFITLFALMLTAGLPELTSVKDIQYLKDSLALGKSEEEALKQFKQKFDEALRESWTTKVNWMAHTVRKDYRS
assay.overview: Inhibition of PI3Kbeta in LPA stimulated human PC-3 cells incubated for 10 mins by AlphaLISA assay
Assay type: cell-based
pIC50: −log10 of the molar value.
endpoint.name: pIC50

>>> numeric_result("COc1cc(-c2cc3c(O[C@H]4CCN(C(=O)C5CCC5)C4)ncnc3s2)cnc1OC")
5.21
>>> numeric_result("CCC(=O)N1CC[C@H](Nc2ncnc3sc(-c4cnc(OC)c(OC)c4)cc23)C1")
5.29
>>> numeric_result("CCC(=O)N1CC[C@H](Nc2ncnc3c2CN(c2cnc(OC)c(C(F)(F)F)c2)CC3)C1")
5.57
>>> numeric_result("COc1cc(-c2cc3c(N[C@H]4CCN(C(=O)C5CCC5)C4)ncnc3s2)cnc1OC")
5.38

###

test.system: Phosphatidylinositol 4,5-bisphosphate 3-kinase catalytic subunit gamma isoform (Homo sapiens)
Sequence (P48736 whole entry, canonical isoform): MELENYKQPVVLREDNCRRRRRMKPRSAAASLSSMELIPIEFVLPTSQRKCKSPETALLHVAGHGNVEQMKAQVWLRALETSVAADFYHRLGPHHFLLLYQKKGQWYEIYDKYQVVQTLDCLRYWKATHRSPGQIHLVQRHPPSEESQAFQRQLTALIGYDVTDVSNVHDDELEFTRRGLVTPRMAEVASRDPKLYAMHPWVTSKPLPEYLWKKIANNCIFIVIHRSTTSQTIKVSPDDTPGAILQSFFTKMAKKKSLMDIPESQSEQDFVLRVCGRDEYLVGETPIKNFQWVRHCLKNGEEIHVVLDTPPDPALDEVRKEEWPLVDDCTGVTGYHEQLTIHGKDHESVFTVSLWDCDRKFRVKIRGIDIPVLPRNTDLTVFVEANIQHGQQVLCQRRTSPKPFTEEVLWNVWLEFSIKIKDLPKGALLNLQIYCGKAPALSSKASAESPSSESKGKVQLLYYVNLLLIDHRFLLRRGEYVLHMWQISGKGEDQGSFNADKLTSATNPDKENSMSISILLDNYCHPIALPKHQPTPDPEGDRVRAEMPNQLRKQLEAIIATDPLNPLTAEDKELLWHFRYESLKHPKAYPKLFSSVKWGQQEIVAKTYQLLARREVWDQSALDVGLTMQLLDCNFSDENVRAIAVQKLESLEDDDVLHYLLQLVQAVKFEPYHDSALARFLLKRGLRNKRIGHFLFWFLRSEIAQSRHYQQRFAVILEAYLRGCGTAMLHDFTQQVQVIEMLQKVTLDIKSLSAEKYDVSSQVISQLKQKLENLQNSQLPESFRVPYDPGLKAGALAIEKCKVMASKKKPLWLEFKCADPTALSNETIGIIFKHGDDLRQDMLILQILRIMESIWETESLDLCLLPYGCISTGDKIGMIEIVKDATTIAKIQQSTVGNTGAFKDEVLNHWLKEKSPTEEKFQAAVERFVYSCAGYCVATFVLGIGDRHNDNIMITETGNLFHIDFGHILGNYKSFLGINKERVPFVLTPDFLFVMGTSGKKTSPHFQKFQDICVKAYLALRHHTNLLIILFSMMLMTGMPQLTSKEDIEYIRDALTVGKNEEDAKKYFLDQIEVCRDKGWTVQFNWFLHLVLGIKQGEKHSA
assay.overview: Inhibition of PI3Kgamma (unknown origin) using PIP2 as substrate measured after 1 hr in presence of ATP by ADP-glo luminescence assay
endpoint.name: IC50

>>> result("CCC(=O)N1CC[C@H](Nc2ncnc3sc(-c4cnc(OC)c(OC)c4)cc23)C1")
"2680 nM"
>>> result("COc1cc(-c2cc3c(N[C@H]4CCN(C(=O)C5CCC5)C4)ncnc3s2)cnc1OC")
"1990 nM"
>>> result("CCC(=O)N1CC[C@H](Nc2ncnc3c2CN(c2cnc(OC)c(C(F)(F)F)c2)CC3)C1")
"902 nM"
>>> result("COc1cc(-c2cc3c(O[C@H]4CCN(C(=O)C5CCC5)C4)ncnc3s2)cnc1OC")
"2860 nM"

###

assay.overview: AUC (0 to infinity) in ICR mouse at 30 mg/kg, po measured upto 24 hrs by LC-MS/MS analysis
Format: ADME, organism-based
Design: dose 30 mg/kg, time < 24 hrs, route po
experimental.context: in vivo
endpoint.name: AUC(0-inf)

>>> result("CCC(=O)N1CC[C@H](Nc2ncnc3sc(-c4cnc(OC)c(OC)c4)cc23)C1")
"1030 ng·h/mL"
